target.entity: Telomerase reverse transcriptase (Homo sapiens)
Sequence (O14746 whole entry): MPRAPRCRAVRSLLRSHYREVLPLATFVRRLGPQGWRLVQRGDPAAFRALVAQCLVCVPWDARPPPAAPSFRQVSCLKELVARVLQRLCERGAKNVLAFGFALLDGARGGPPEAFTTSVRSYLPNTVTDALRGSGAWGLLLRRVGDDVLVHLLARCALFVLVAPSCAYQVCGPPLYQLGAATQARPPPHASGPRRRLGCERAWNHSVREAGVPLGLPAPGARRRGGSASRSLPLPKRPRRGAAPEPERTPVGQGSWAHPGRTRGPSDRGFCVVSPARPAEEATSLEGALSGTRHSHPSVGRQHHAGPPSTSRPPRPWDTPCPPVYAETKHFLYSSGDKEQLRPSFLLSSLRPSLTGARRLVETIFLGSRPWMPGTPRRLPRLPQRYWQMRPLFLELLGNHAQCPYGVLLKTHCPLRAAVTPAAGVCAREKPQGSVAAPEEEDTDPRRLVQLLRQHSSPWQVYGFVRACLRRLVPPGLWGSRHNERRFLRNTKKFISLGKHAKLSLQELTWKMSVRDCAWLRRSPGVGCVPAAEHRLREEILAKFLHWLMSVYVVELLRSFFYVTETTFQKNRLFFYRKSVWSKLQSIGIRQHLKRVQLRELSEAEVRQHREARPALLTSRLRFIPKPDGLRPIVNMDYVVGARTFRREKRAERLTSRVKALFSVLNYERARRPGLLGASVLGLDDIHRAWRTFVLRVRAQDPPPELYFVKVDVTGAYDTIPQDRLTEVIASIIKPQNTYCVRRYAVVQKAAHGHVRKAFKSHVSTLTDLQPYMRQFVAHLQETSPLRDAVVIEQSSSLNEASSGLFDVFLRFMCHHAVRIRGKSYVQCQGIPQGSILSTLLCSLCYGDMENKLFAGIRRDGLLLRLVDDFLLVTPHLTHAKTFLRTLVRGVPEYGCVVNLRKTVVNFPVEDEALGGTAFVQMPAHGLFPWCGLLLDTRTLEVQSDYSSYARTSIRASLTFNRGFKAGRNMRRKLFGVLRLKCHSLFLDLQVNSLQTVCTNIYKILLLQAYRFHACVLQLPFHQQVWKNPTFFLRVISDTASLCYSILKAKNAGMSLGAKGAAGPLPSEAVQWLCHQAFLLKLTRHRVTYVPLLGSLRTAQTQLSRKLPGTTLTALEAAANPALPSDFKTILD
assay.details: Effect on human TERT expressed in H1299 cells at 100 uM after 24 hrs by SEAP assay relative to control
For each record, write down the corresponding residual activity.
Answer format: numeric, % implied, no suffix.

Could you share what residual activity was measured for CCNCC(=O)Nc1ccc2c(c1)C(=O)c1cc(NC(=O)CNCC)ccc1C2=O , tested on Telomerase reverse transcriptase (Homo sapiens)? 34

Test system Telomerase reverse transcriptase (Homo sapiens); read-out residual activity; what value for O=C1c2ccc(NC(=O)C3CCCC3)cc2C(=O)c2cc(NC(=O)C3CCCC3)ccc21 ? 85

Any idea what residual activity came out for O=C(CCCl)Nc1ccc2c(c1)C(=O)c1cc(NC(=O)CCCl)ccc1C2=O on Telomerase reverse transcriptase (Homo sapiens)? 87

Recall the recorded residual activity for CCCNCC(=O)Nc1ccc2c(c1)C(=O)c1cc(NC(=O)CNCCC)ccc1C2=O with Telomerase reverse transcriptase (Homo sapiens) and state it. 24

Recorded residual activity for CCN(CC)CCC(=O)Nc1ccc2c(c1)C(=O)c1cc(NC(=O)CCN(CC)CC)ccc1C2=O with Telomerase reverse transcriptase (Homo sapiens), please? 26

Which measured residual activity belongs to CN1CCN(CC(=O)Nc2ccc3c(c2)C(=O)c2cc(NC(=O)CN4CCN(C)CC4)ccc2C3=O)CC1 , tested on Telomerase reverse transcriptase (Homo sapiens)? 23

Given the entry O=C(CCN1CCCCC1)Nc1ccc2c(c1)C(=O)c1cc(NC(=O)CCN3CCCCC3)ccc1C2=O , what residual activity was observed with Telomerase reverse transcriptase (Homo sapiens)? 25

Lab note: need residual activity with Telomerase reverse transcriptase (Homo sapiens) for entry CCCCNCCC(=O)Nc1ccc2c(c1)C(=O)c1cc(NC(=O)CCNCCCC)ccc1C2=O , please look it up. 22

Could you share what residual activity was measured for CC(=O)Nc1ccc2c(c1)C(=O)c1cc(NC(C)=O)ccc1C2=O , tested on Telomerase reverse transcriptase (Homo sapiens)? 74

Please state recorded residual activity (tested on Telomerase reverse transcriptase (Homo sapiens)) of CN(C)CCC(=O)Nc1ccc2c(c1)C(=O)c1cc(NC(=O)CCN(C)C)ccc1C2=O 1

State its residual activity on Telomerase reverse transcriptase (Homo sapiens): O=C(CN1CCCC1)Nc1ccc2c(c1)C(=O)c1cc(NC(=O)CN3CCCC3)ccc1C2=O 30

What reported residual activity corresponds to O=C1c2ccc(NC(=O)C3CC3)cc2C(=O)c2cc(NC(=O)C3CC3)ccc21 on Telomerase reverse transcriptase (Homo sapiens)? 81

Fill in the recorded residual activity for this compound, with Telomerase reverse transcriptase (Homo sapiens) as test system: CCCNCCC(=O)Nc1ccc2c(c1)C(=O)c1cc(NC(=O)CCNCCC)ccc1C2=O 13

# query: residual activity | item CCC(=O)Nc1ccc2c(c1)C(=O)c1cc(NC(=O)CC)ccc1C2=O | system: Telomerase reverse transcriptase (Homo sapiens) 85

Find the measured residual activity: item O=C1c2ccc(NC(=O)C3CCCCC3)cc2C(=O)c2cc(NC(=O)C3CCCCC3)ccc21 , target or system Telomerase reverse transcriptase (Homo sapiens). 80

Record CC(C)NCC(=O)Nc1ccc2c(c1)C(=O)c1cc(NC(=O)CNC(C)C)ccc1C2=O : what is its residual activity with Telomerase reverse transcriptase (Homo sapiens)? 21

Hey, just so you know, these numbers are from ChEMBL document CHEMBL1155063.
